Data provenance: patent US7786107B2

biological target: M4 muscarinic receptor (Homo sapiens); construct: expressed in transfected cells; host or cells: CHO; assay: Functional mobilization of intracellular calcium (FLIPR) in CHO cells expressing M4; assay type: cell-based; conditions: CHO; 100% efficacy is the maximum response obtained with the Carbachol control
Sequence (P08173 whole entry): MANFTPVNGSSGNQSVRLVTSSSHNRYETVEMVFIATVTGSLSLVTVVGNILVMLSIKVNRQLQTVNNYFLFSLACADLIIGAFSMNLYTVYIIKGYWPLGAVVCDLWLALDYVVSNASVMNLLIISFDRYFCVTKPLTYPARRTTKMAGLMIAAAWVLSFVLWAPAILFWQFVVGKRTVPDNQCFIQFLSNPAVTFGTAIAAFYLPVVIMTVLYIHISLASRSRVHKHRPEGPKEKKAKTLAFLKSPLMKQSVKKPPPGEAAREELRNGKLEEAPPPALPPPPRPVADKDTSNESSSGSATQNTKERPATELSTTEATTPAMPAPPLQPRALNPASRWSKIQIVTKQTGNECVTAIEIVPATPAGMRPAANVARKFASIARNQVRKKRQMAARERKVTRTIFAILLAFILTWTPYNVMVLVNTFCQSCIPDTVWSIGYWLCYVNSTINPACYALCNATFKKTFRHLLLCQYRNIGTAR
Assay readout: Emax

Emax on M4 muscarinic receptor (Homo sapiens) for CCOC(=O)N1CCC(N2CCC3(CCC(=O)N(C)c4ccccc43)CC2)CC1 [Compound 21] is 25 to 100%

The compound CN1C(=O)CCC2(CCN(C3C[C@@H]4CC[C@@H]3C4)CC2)c2ccccc21 (stereo partly shown) [Compound 35] , when measured on M4 muscarinic receptor (Homo sapiens), yielded Emax of 25 to 100%

Let me check: CCOC(=O)N1C2CCC1CC(N1CCC3(CCC(=O)Nc4ccccc43)CC1)C2 (stereo not shown) [Compound 4] , system M4 muscarinic receptor (Homo sapiens), measured Emax is 25 to 100%

Let me check: CN1C(=O)CCC2(CCN(CCC(C)(C)C)CC2)c2ccccc21 [Compound 3] , system M4 muscarinic receptor (Homo sapiens), measured Emax is 25 to 100%
